tested on: NCI-N87; experiment: Cytotoxicity against human NCI-N87 cells after 72 hrs by MTT assay; assay type: functional, cell-based; settings: NCI-N87, 72 h
Assay Readout: IC50 (µM)
One number for each entry, in µM.

[
  {
    "Smiles String": "C[C@H]1[C@H](C)CC[C@]2(C(=O)O)CC[C@]3(C)C(=CC[C@@H]4[C@@]5(C)CC[C@H](O)C(C)(C)[C@@H]5CC[C@]43C)[C@H]12",
    "Unit Spec": "µM",
    "IC50": 4.2
  }
]

Input line: Field request: IC50 | item: C[C@H]1[C@@H]2[C@H]3CC[C@@H]4[C@@]5(C)CC[C@H](O)C(C)(C)[C@@H]5CC[C@@]4(C)[C@]3(C)CC[C@@]23C[C@@H](O)[C@]1(C)OC3=O
Output line: 7.3

---

tested on: NCI-N87; experiment: Cytotoxicity against human NCI-N87 cells after 72 hrs by MTT assay; format: functional, cell-based; conditions: NCI-N87, 72 h
Assay Readout: IC50

Recorded IC50, per entry:
[
  {
    "Smiles String": "C=C1CC[C@]2(C(=O)O)CC[C@]3(C)C(=CC(=O)[C@@H]4[C@@]5(C)C[C@@H](O)[C@H](O)[C@@](C)(CO)[C@@H]5CC[C@]43C)[C@@H]2[C@H]1C",
    "Assay Readout": "IC50",
    "Result": "> 10 µM"
  },
  {
    "Smiles String": "CC1(C)CC[C@]2(C(=O)O)CC[C@]3(C)C(=CC(=O)[C@@H]4[C@@]5(C)C[C@@H](O)[C@H](O)[C@@](C)(CO)[C@@H]5CC[C@]43C)[C@@H]2C1",
    "Assay Readout": "IC50",
    "Result": "> 10 µM"
  },
  {
    "Smiles String": "CC1(C)CC[C@]2(C(=O)O)CC[C@]3(C)C(=CC[C@@H]4[C@@]5(C)C[C@@H](O)[C@H](O)[C@@](C)(CO)[C@@H]5CC[C@]43C)[C@@H]2C1",
    "Assay Readout": "IC50",
    "Result": "> 10 µM"
  }
]

Input line: Field request: IC50 | item: C[C@H]1[C@H](C)CC[C@]2(C(=O)O)CC[C@]3(C)C(=CC[C@@H]4[C@@]5(C)C[C@@H](O)[C@H](O)C(C)(C)[C@@H]5CC[C@]43C)[C@H]12
Output line: 4.4 µM

---

system: NCI-N87; assay: Cytotoxicity against human NCI-N87 cells after 72 hrs by MTT assay; format: functional, cell-based; settings: NCI-N87, 72 h
Assay Readout: pIC50
Numbers only, as −log10 of the molar value.

[
  {
    "Smiles String": "COC(=O)[C@]12CCC(C)(C)CC1=C1CC[C@@H]3[C@@]4(C)CC[C@H](O)C(C)(C)[C@@H]4CC[C@@]3(C)[C@]1(C(=O)O)CC2",
    "Number": 5.29
  }
]

# ---- query molecule ----
Input line: Field request: pIC50 | item: COC(=O)[C@]12CC=C(C)[C@@H](C)[C@@H]1[C@H]1CC[C@@H]3[C@@]4(C)CC[C@H](O)C(C)(C)[C@@H]4CC[C@@]3(C)[C@]1(C(=O)O)CC2
Output line: 5.19
